# Tested on: E. coli NCTC 13353 producing CTX-M15 and OXA 1 beta-lactamase enzymes
# Protocol Notes: Time kill study against E. coli NCTC 13353
# Assay type: cell-based
# Condition: agent alone 1 mcg/ml; 4 hours
Measured Parameter: Bacterial count (Log10 CFU/ml) 4 hours

Sample answers from the record:
C[C@@H](O)[C@H]1C(=O)N2C(C(=O)O)=C(SCCN=CN)C[C@H]12 4.47 Log10 CFU/ml
C=CC1=C(C(=O)O)N2C(=O)[C@@H](NC(=O)/C(=N\OCC(=O)O)c3csc(N)n3)[C@H]2SC1 8.90 Log10 CFU/ml
COCC1=C(C(=O)O)N2C(=O)[C@@H](NC(=O)/C(=N\OC)c3csc(N)n3)[C@H]2SC1 8.74 Log10 CFU/ml
CO/N=C(\C(=O)N[C@@H]1C(=O)N2C(C(=O)O)=C(COC(N)=O)CS[C@H]12)c1ccco1 8.80 Log10 CFU/ml

Consider the record given below.
The reported Bacterial count (Log10 CFU/ml) 4 hours of the compound `Nc1nc(/C(=C/CC(=O)O)C(=O)N[C@@H]2C(=O)N3C(C(=O)O)=CCS[C@H]23)cs1` was 8.7 Log10 CFU/ml

---

The following compounds are shown together with reported Bacterial count (Log10 CFU/ml) 4 hours values.
# Tested on: clinical isolate of E. coli M50 producing CMY 6, DHA—1/2 beta-lactamase enzymes
# Protocol Notes: Time kill study against clinical isolate E. coli M50
# Assay type: cell-based
# Condition: agent alone 4 mcg/ml; 4 hours
Please make sure the unit comes right after the number.

Guide cases for Bacterial count (Log10 CFU/ml) 4 hours, answers given:
CO/N=C(\C(=O)N[C@@H]1C(=O)N2C(C(=O)O)=C(COC(N)=O)CS[C@H]12)c1ccco1 9.02 Log10 CFU/ml
COCC1=C(C(=O)O)N2C(=O)[C@@H](NC(=O)/C(=N\OC)c3csc(N)n3)[C@H]2SC1 9.04 Log10 CFU/ml
Nc1nc(/C(=C/CC(=O)O)C(=O)N[C@@H]2C(=O)N3C(C(=O)O)=CCS[C@H]23)cs1 8.70 Log10 CFU/ml

For this compound ( `O=C(NOC[C@@H]1CCCN1)[C@@H]1CC[C@@H]2CN1C(=O)N2OS(=O)(=O)O` ), measured Bacterial count (Log10 CFU/ml) 4 hours is 8.09 Log10 CFU/ml

Note to self: Bacterial count (Log10 CFU/ml) 4 hours recorded for `C=CC1=C(C(=O)O)N2C(=O)[C@@H](NC(=O)/C(=N\OCC(=O)O)c3csc(N)n3)[C@H]2SC1` was 9.20 Log10 CFU/ml

---

# Test system: clinical isolate of E. coli M50 producing CMY 6, DHA—1/2 beta-lactamase enzymes
# Protocol Notes: Time kill study against clinical isolate E. coli M50
# Assay type: cell-based
# Condition: agent alone 4 mcg/ml; 2 hours
Measured Parameter: Bacterial count (Log10 CFU/ml) 2 hours

Observe how each entry below is paired with its result.
Molecule	Measured Parameter	Result
COCC1=C(C(=O)O)N2C(=O)[C@@H](NC(=O)/C(=N\OC)c3csc(N)n3)[C@H]2SC1 [Cefpodoxime, cefpodoxime]	Bacterial count (Log10 CFU/ml) 2 hours	8.60 Log10 CFU/ml
O=C(NOC[C@@H]1CCCN1)[C@@H]1CC[C@@H]2CN1C(=O)N2OS(=O)(=O)O [Compound of Formula (I)]	Bacterial count (Log10 CFU/ml) 2 hours	8.02 Log10 CFU/ml
Nc1nc(/C(=C/CC(=O)O)C(=O)N[C@@H]2C(=O)N3C(C(=O)O)=CCS[C@H]23)cs1 [Ceftibuten, ceftibuten]	Bacterial count (Log10 CFU/ml) 2 hours	8.48 Log10 CFU/ml
CO/N=C(\C(=O)N[C@@H]1C(=O)N2C(C(=O)O)=C(COC(N)=O)CS[C@H]12)c1ccco1 [Cefuroxime, cefuroxime]	Bacterial count (Log10 CFU/ml) 2 hours	8.58 Log10 CFU/ml

Lab book: Bacterial count (Log10 CFU/ml) 2 hours of C=CC1=C(C(=O)O)N2C(=O)[C@@H](NC(=O)/C(=N\OCC(=O)O)c3csc(N)n3)[C@H]2SC1 [Cefixime, cefixime] noted as 8.84 Log10 CFU/ml
